Where these numbers come from: patent US20240116985A1

- system: full-length beta-Catenin (Uniprot ID P35222) (Homo sapiens (Human)) (UniProt P35222)
- test.protocol: cell-based or functional assay
Starred links: 1 amine or outer side, 2 acyl side, 3 side chain; linkers in the order of their positions; H or OH if unused. Positions of bridges follow the written chain, without caps; N, C: chain ends. Non-standard residues stand in square brackets, D forms with d. Primed or numbered codes have the meaning given here. *: point of attachment. PyrS2″ = (S)-3-amino-1-((pent-4-en-1-yloxy)carbonyl)pyrrolidine-3-carboxylic acid (stapling residue), C=CCCCOC(=O)N1CC[C@@](N[*:1])(C(=O)[*:2])C1; B5(5) = 2,2-bis(4-pentenyl)glycine, 2-amino-2-(pent-4-en-1-yl)hept-6-enoic acid (stitching residue), C=CCCCC(CCCC=C)(N[*:1])C(=O)[*:2]; PyrS2 = (S)-3-amino-1-((pent-4-en-1-yloxy)carbonyl)pyrrolidine-3-carboxylic acid, C=CCCCOC(=O)N1CC[C@@](N[*:1])(C(=O)[*:2])C1; B5(3) = 2,2-bis(4-pentenyl)glycine (stitching residue), C=CCCCC(CCCC=C)(N[*:1])C(=O)[*:2]; BzAm2Allyl = N-terminal 2-allylbenzoic acid (acyl cap), C=CCc1ccccc1C(=O)*; Phe(3-COOH) = N[C@@H](Cc1cccc(C(=O)O)c1)C(=O)O; Phe(2-CF3) = N[C@@H](Cc1ccccc1C(F)(F)F)C(=O)O; Bta = N[C@@H](Cc1csc2ccccc12)C(=O)O; αAllylPro = C=CC[C@@]1(C(=O)O)CCCN1; tBuAla = CC(C)(C)C[C@H](N)C(=O)O; Gly(cBu) = N[C@H](C(=O)O)C1CCC1; 3Thi = N[C@@H](Cc1ccsc1)C(=O)O; Ac5c = NC1(C(=O)O)CCCC1
experimental.endpoint: DLD1 4% Abs IC50

Solved cases below.
binder	observed.result
Ac-[αAllylPro]D[tBuAla][B5(5)]D[Phe(3-COOH)]AAFL[PyrS2″][Phe(2-CF3)][Bta]QL[Gly(cBu)]-NH2 (staple 1-4, 4-11) [I-2388]	1.2 µM
BzAm2Allyl-XD[B5(3)]ADDAAF[PyrS2]L[3Thi][Bta]Q-NH2 (staple 3-10; staple (positions not given here); not fully specified (residue 1, bridges); printed as BzAm2Allyl-MePro-Asp-B5-Ala-Asp-Asp-Ala-Ala-Phe-PyrS2-Leu-3Thi-BztA-Gln-NH2; also: -CH=CH- in each staple reduced to -CH2-CH2-) [I-2606]	> 20 µM

If you can, please state the reported DLD1 4% Abs IC50 value of Ac-[αAllylPro]D[tBuAla][B5(5)]D[Phe(3-COOH)]AAFL[PyrS2″][Phe(2-CF3)][Bta]QL[Ac5c]-NH2 (staple 1-4, 4-11) [I-2387] .
1.5 µM

If you can, please state the reported DLD1 4% Abs IC50 value of BzAm2Allyl-XD[B5(3)]AD[Phe(3-COOH)]AAF[PyrS2]L[3Thi][Bta]Q-NH2 (staple 3-10; staple (positions not given here); not fully specified (residue 1, bridges); printed as BzAm2Allyl-MePro-Asp-B5-Ala-Asp-3COOHF-Ala-Ala-Phe-PyrS2-Leu-3Thi-BztA-Gln-NH2; also: -CH=CH- in each staple reduced to -CH2-CH2-) [I-2607] .
> 20 µM
